Experiment: in vitro
Format: in vitro ADME
Settings: human, Caco-2, pH 7.2, Caco-2, apical-to-basal, pH 7.2, 37° C.; read-out: PEAB
Criterion: Papp A→B at 10 μM meeting or surpassing 50 ×10⁻⁶ cm/s. Met: Satisfied. Not met: Not satisfied.

Challenge: Does Papp A→B at 10 μM meet or surpass 50 ×10⁻⁶ cm/s for CN1C(=O)N(c2cccc(C(F)(F)F)c2)C2=C(C(=O)CC2)C1c1ccc(C#N)cc1CO (single isomer, unassigned) ?
Response given: Satisfied

Challenge: Likewise for CCS(=O)(=O)c1cc(C#N)ccc1C1NC(=O)N(c2cccc(C(F)F)c2)C2=C1C(=O)CC2 (single isomer, unassigned) ?
Response given: Not satisfied

Challenge: Do the same for CN1C(=O)N(c2cccc(C(F)(F)F)c2)C2=C(C(=O)CC2)[C@H]1c1ccc(C#N)cc1S(=O)(=O)CCO please
Response given: Not satisfied

Challenge: Same again, this time with CN1C(=O)N(c2cccc(C(F)(F)F)c2)C2=C(C(=O)CC2)C1c1ccc(C#N)cc1C(C)(C)O (stereo not drawn)
Response given: Satisfied

Challenge: Another: CN1C(=O)N(c2cccc(C(F)(F)F)c2)C2=C(C(=O)CC2)C1c1ccc(C#N)cc1S(=O)(=O)CCCO (single isomer, unassigned)
Response given: Not satisfied

Challenge: Also CCNC(=O)N1C(=O)N(c2cc(C(F)(F)F)ccn2)C2=C(C(=O)CC2)C1c1ccc(C#N)cc1S(C)(=O)=O (stereo not drawn) ?
Response given: Not satisfied

###

Exercise: for every item that follows, state its recorded pIC50.
Molecular target: neutrophil elastase (Homo sapiens (Human), UniProt P08246)
Sequence (P08246 whole entry, looked up): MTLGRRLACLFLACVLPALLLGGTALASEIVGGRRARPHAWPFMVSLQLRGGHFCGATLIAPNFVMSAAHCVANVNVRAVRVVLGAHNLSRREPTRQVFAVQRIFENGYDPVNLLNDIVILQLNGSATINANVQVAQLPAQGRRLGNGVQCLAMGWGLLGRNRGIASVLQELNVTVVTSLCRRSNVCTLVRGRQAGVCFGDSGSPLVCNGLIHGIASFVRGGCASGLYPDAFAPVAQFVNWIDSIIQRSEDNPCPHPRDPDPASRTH
Assay: biochemical
Format: biochemical
Conditions: read-out: IC50
pIC50: −log10 of the molar value.

Challenge: # query: pIC50 | item CNC(=O)N1C(=O)N(c2cc(C(F)(F)F)ccn2)C2=C(C(=O)CC2)C1c1ccc(C#N)cc1S(C)(=O)=O (stereo not shown) | system: neutrophil elastase (Homo sapiens (Human), UniProt P08246)
Response given: > 9.00

Challenge: Input CN1C(=O)N(c2cc(C(F)(F)F)ccn2)C2=C(C(=O)CC2)C1c1ccc(C#N)cc1S(C)(=O)=O (stereo not shown)
Response given: 8.02

Challenge: Item: CN1C(=O)N(c2cccc(C(F)(F)F)c2)C2=C(C(=O)CC2)C1c1ccc(C#N)cc1C(C)(C)O (stereo not shown)
Response given: > 9.00

Challenge: Another compound to look at: CN1C(=O)N(c2cccc(C(F)(F)F)c2)C2=C(C(=O)CC2)[C@H]1c1ccc(C#N)cc1[S+](C)[O-] (single isomer, unassigned) [Example C.2A]
Response given: > 9.00

Challenge: And the next one, CCS(=O)(=O)c1cc(C#N)ccc1C1C2=C(CCC2=O)N(c2cccc(C(F)F)c2)C(=O)N1C(=O)NC (stereo not shown) ?
Response given: > 9.00

Challenge: Another: CC[S+]([O-])c1cc(C#N)ccc1C1C2=C(CCC2=O)N(c2cccc(C(F)(F)F)c2)C(=O)N1C(=O)NC (single isomer, unassigned) [Example C.6.1]
Response given: > 9.00

Challenge: Now this one: CCS(=O)(=O)c1cc(C#N)ccc1C1C2=C(CCC2=O)N(c2cccc(C(F)F)c2)C(=O)N1C (stereo not shown)
Response given: > 9.00

Challenge: Same question for CCNC(=O)N1C(=O)N(c2cc(C(F)(F)F)ccn2)C2=C(C(=O)CC2)C1c1ccc(C#N)cc1S(C)(=O)=O (stereo not shown) please.
Response given: > 9.00

Challenge: Field entry: CC[S+]([O-])c1cc(C#N)ccc1C1NC(=O)N(c2cccc(C(F)(F)F)c2)C2=C1C(=O)CC2 (single isomer, unassigned) [Example C.4.1]
Response given: 8.28

Challenge: Do the same for CN1C(=O)N(c2cccc(C(F)(F)F)c2)C2=C(C(=O)CC2)C1c1ccc(C#N)cc1CO (stereo not shown) please
Response given: 8.80

Challenge: Likewise for CC[S+]([O-])c1cc(C#N)ccc1C1C2=C(CCC2=O)N(c2cccc(C(F)(F)F)c2)C(=O)N1C(=O)NC (single isomer, unassigned) [Example C.6.2] ?
Response given: > 9.00

Challenge: Same read-out for CCS(=O)(=O)c1cc(C#N)ccc1C1C2=C(CCC2=O)N(c2ccnc(C(F)(F)F)c2)C(=O)N1C (single isomer, unassigned) [Example D.3B] ?
Response given: 8.85

Challenge: Now the compound CN1C(=O)N(c2cccc(C(F)(F)F)c2)C2=C(C(=O)CC2)[C@H]1c1ccc(C#N)cc1[S+](C)[O-] (single isomer, unassigned) [Example C.1B]
Response given: > 9.00
